procedure text: MMV: MTT Cytotoxicity Assay Day 3 pi, U87-CD4-CCR5 cells, % cell death @ 5mM compound
Assay type: toxicity, cell-based
recorded conditions: human, u87-cd4-ccr5, 5000 µM
Rule: % Cell Death under 20 gives n, otherwise y.

Completed entries (count: 3):
Br.Cc1ccc(C)c(-c2csc(Nc3ccc(C)c(C)c3)n2)c1; n
CCOc1ccc(-c2nc(NC(=O)c3cccc(S(C)(=O)=O)c3)sc2C)cc1; n
CCCCOC(=O)c1ccc(Nc2cc(C)nc3ccc(OC)cc23)cc1; y

Turning to the following compound.
Does "CCCCOc1ccc(C(=O)Nc2cc(C)on2)cc1" have a reported % Cell Death of at least 20?
y
